The reported numbers originate from paper PMC10397247.

targetEntity: T1, 4H_BCR
T1 chain: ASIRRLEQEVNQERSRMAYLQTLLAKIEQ
method: two-hybrid library CCmax;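 also: natural log of median RNA to DNA barcode read ratio; higher means stronger binding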
experimentalContext: mean of both orientations
Reported interaction score values follow for various binders
quantityKind: interaction score

1. DKNAALEAEIAALEAEIAALEAEIAALEG [4H3073-AA] = -1.37
2. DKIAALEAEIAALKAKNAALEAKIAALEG [4H2165-AA] = -0.379
3. DEIAALEAKNAALKAKIAALEAKIAALKG [4H486-AA] = -1.34
4. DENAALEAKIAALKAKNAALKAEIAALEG [4H1401-AA] = -1.64
5. DEIAALEAEIAALEAKNAALKAEIAALKG [4H58-AA] = -2.14
6. DEIAALEAKNAALKAEIAALEAENAALEG [4H451-AA] = -1.98
7. DKNAALKAEIAALKAEIAALEAENAALEG [4H3651-AA] = -1.92
8. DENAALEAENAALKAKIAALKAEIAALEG [4H1257-AA] = -2.19
9. DEIAALEAEIAALEAKNAALEAKNAALKG [4H56-AA] = -1.53
10. DEIAALEAEIAALEAKIAALKAENAALEG [4H43-AA] = -1.44
11. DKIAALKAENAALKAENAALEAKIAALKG [4H2774-AA] = -0.289
12. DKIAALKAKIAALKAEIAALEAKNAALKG [4H2888-AA] = -2.06
13. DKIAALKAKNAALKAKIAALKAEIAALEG [4H3049-AA] = -2.02
14. DKNAALKAKIAALKAEIAALEAEIAALEG [4H3905-AA] = -1.61
